biological target: SHP2-C SH2; assay: SH2 binding enrichment of the phosphorylated peptide, bacterial display (enrichment ratio); higher = better substrate or ligand; peptides without Tyr show the background
OBSERVED PROPERTY: SH2 binding enrichment

For SHP2-C SH2, give SH2 binding enrichment of the listed sequence: WAFNLYDINKD [KCNIP3_Y174]
0.6

For SHP2-C SH2, give SH2 binding enrichment of the listed sequence: MLEVSYVDRNS [F10_Y384_P383S]
0.609

For SHP2-C SH2, give SH2 binding enrichment of the listed sequence: QQLDKYQELLD [LMNA_Y359_E358K]
0.59

For SHP2-C SH2, give SH2 binding enrichment of the listed sequence: GIVEEYQLPYY [BMPR1A_Y453]
0.997

For SHP2-C SH2, give SH2 binding enrichment of the listed sequence: FQKDVYNIPPS [NEDD9_Y177_D178N_YF]
0.913

For SHP2-C SH2, give SH2 binding enrichment of the listed sequence: SDFSSYARTSI [TERT_Y949_YF]
0.805

For SHP2-C SH2, give SH2 binding enrichment of the listed sequence: ADCRFYTFPQM [GAMT_Y223_A224T_YF]
0.717

* * *

biological target: c-Src SH2; test: SH2 binding enrichment of the phosphorylated peptide, bacterial display (enrichment ratio); higher = better substrate or ligand; peptides without Tyr show the background
OBSERVED PROPERTY: SH2 binding enrichment

Please indicate SH2 binding enrichment recorded for KGSEGYLAAIY [NF1_Y2503_T2507I]
0.54

Please indicate SH2 binding enrichment recorded for MARDIYRASFF [ALK_Y1278_YF]
0.52

Please indicate SH2 binding enrichment recorded for EEGRVYVYRLS [ITGAE_Y549]
0.66

Please indicate SH2 binding enrichment recorded for SHSMRYFSTAV [HLA-C_Y31_D33S]
0.423

Please indicate SH2 binding enrichment recorded for KDQGGYTMHQD [MAPT_Y29]
0.451

Please indicate SH2 binding enrichment recorded for AGLEEYSAMRD [HRAS_Y64_Q61L]
0.572

* * *

biological target: MERTK (UniProt Q12866); assay: phosphorylation enrichment, bacterial display (enrichment ratio); higher = better substrate or ligand; peptides without Tyr show the background
Sequence (Q12866 whole entry, looked up): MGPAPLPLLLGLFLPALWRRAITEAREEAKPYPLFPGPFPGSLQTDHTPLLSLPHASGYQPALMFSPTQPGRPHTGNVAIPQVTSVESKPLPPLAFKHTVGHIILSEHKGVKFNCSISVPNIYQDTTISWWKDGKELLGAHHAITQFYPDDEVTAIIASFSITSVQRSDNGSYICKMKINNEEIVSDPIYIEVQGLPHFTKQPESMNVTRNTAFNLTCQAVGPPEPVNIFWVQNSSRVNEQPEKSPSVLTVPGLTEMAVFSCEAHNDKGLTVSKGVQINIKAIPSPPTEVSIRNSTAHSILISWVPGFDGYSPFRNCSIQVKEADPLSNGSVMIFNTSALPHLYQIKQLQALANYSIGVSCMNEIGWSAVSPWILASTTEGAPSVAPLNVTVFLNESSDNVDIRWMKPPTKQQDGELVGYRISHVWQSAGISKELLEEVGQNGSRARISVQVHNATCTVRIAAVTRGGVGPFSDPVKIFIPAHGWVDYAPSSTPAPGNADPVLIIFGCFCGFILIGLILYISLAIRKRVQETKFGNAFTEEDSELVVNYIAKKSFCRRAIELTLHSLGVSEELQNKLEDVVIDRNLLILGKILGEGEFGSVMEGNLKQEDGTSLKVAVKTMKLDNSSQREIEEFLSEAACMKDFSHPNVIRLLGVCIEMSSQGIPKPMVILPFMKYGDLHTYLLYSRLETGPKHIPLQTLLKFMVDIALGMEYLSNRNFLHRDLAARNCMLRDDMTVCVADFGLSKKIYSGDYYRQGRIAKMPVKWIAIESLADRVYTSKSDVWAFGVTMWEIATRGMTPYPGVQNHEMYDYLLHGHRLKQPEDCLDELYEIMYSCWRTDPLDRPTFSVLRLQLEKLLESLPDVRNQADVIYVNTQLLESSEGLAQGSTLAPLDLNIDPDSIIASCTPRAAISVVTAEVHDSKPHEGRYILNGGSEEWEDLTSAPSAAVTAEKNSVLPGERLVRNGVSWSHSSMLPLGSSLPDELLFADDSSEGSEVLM
OBSERVED PROPERTY: phosphorylation enrichment
Give only the figure.

Previously resolved entries follow.
For MERTK (UniProt Q12866), give phosphorylation enrichment of the listed sequence: TYTVSYLPDMS [FLNC_Y1602]
0.733

For MERTK (UniProt Q12866), give phosphorylation enrichment of the listed sequence: DFAIVYGTIIL [GPR179_Y460_G455D]
0.402

For MERTK (UniProt Q12866), give phosphorylation enrichment of the listed sequence: SVIKEYQIRQV [USH2A_Y3623_G3618S]
0.328

For MERTK (UniProt Q12866), give phosphorylation enrichment of the listed sequence: HLWRIYYDITD [MMP27_Y307]
1.77

***
For MERTK (UniProt Q12866), give phosphorylation enrichment of the listed sequence: LITTLYISFLG [KCNQ1_Y267_G269S]
0.902

For MERTK (UniProt Q12866), give phosphorylation enrichment of the listed sequence: MDQAEYQAKIQ [DHX58_Y518_R523Q]
0.519

* * *

Documented phosphorylation enrichment across a set of sequences
test system: Fer (mouse); assay: phosphorylation enrichment, bacterial display (enrichment ratio); higher = better substrate or ligand; peptides without Tyr show the background
Give only the figure.

Previously resolved entries follow.
Please indicate phosphorylation enrichment recorded for MKGDYYRYLAE [YWHAG_Y131]
0.501

Please indicate phosphorylation enrichment recorded for DMDATYRPMYS [JUP_Y701]
0.463

Please indicate phosphorylation enrichment recorded for TIMTNYNPNYC [ALK_Y1092_D1091N]
0.46

***
Please indicate phosphorylation enrichment recorded for IGKAGYTDKVV [ENO1_Y236]
0.365

Please indicate phosphorylation enrichment recorded for LVGTPYWMAPE [PAK5_Y608]
0.573

Please indicate phosphorylation enrichment recorded for SHSMRYFDTSV [HLA-C_Y31_A35S]
0.37

Please indicate phosphorylation enrichment recorded for VRQQDYKKVEE [HADHA_Y283_V282D]
0.376

Please indicate phosphorylation enrichment recorded for RARIRYAQEHD [NSD1_Y1987]
0.737

Please indicate phosphorylation enrichment recorded for HRGSLYLAIEF [TEK_Y899_Y897S_YF]
0.748

Please indicate phosphorylation enrichment recorded for QLQQAYQEAFE [YWHAZ_Y149_S145L]
1.72

Please indicate phosphorylation enrichment recorded for RDSQLYAVDYE [MRPS34_Y34]
0.871

Please indicate phosphorylation enrichment recorded for PMWHPYKVDVT [TP53TG5_Y255]
0.611

* * *

Documented phosphorylation enrichment across a set of sequences
molecular target: EPHB1 (UniProt P54762); assay: phosphorylation enrichment, bacterial display (enrichment ratio); higher = better substrate or ligand; peptides without Tyr show the background
Sequence (P54762 whole entry, looked up): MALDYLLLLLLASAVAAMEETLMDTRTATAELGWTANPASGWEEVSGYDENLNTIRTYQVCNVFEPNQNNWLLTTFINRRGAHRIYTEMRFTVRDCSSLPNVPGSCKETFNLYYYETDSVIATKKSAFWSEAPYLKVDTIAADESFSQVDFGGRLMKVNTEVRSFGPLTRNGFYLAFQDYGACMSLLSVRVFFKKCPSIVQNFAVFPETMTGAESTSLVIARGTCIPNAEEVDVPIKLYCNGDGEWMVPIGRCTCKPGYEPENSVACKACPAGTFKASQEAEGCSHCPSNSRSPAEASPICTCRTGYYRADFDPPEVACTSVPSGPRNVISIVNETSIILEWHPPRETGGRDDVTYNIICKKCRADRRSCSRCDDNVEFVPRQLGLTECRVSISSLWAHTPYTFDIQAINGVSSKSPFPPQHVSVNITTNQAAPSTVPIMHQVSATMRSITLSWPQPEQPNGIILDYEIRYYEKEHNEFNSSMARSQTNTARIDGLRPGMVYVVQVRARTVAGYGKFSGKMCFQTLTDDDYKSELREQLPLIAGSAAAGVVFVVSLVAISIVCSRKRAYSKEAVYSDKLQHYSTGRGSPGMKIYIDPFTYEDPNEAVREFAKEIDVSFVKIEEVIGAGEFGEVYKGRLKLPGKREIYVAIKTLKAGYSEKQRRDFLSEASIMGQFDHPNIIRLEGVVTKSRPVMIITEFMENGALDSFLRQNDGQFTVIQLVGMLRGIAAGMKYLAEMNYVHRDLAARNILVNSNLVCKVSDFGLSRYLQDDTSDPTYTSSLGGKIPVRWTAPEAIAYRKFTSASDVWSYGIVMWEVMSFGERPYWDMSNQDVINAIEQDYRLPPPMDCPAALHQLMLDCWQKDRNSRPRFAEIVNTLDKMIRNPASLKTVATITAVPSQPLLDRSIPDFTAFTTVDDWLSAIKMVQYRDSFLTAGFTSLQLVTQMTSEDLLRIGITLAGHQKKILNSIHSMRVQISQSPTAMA
Give only the figure.

Previously resolved entries follow.
Please indicate phosphorylation enrichment recorded for LDAFIYNAAVL [GRIN2A_Y730_D731N]
1.3

Please indicate phosphorylation enrichment recorded for PEADKYRLTFA [FGG_Y300_YF]
0.887

Please indicate phosphorylation enrichment recorded for RGDCMYAPLLG [AR_Y269]
7.23

Please indicate phosphorylation enrichment recorded for LLLLFYVVRYC [MPZ_Y177]
0.359

***
Please indicate phosphorylation enrichment recorded for RETLTYAQAQR [BRD1_Y33]
0.383

Please indicate phosphorylation enrichment recorded for SSMIDYNTLEK [MYOC_Y479_P481T]
0.428

* * *

tested on: Fer (mouse); assay: phosphorylation enrichment, bacterial display (enrichment ratio); higher = better substrate or ligand; peptides without Tyr show the background
OBSERVED PROPERTY: phosphorylation enrichment
Give only the figure.

Previously resolved entries follow.
Please indicate phosphorylation enrichment recorded for KKLEVYQSIAD [MYBPC3_Y548]
0.502

Please indicate phosphorylation enrichment recorded for NSNSDYVDILP [SH2D1B_Y127_V130I]
0.682

Please indicate phosphorylation enrichment recorded for DISEPYKVYRI [IRF8_Y107]
0.497

***
Please indicate phosphorylation enrichment recorded for CTNIHYNFMCN [TP53_Y234_T231N_YF]
0.481

Please indicate phosphorylation enrichment recorded for FCGFSYDDIPD [TMEM230_Y112_R108C_YF]
0.76

Please indicate phosphorylation enrichment recorded for SEPDLYYDPRG [PKP1_Y160_C161Y]
1.65

Please indicate phosphorylation enrichment recorded for GHEEFYSTHPH [LRRK2_Y1402_R1398H]
1.41

Please indicate phosphorylation enrichment recorded for LFMGDYVDRGF [PPP2CA_Y86_YF]
0.546

Please indicate phosphorylation enrichment recorded for RAIELYNDKEK [OTULIN_Y244]
0.657

Please indicate phosphorylation enrichment recorded for LKYAIYFEARE [LAMA2_Y1258]
0.822

* * *

biological target: FGFR3 (UniProt P22607); test: phosphorylation enrichment, bacterial display (enrichment ratio); higher = better substrate or ligand; peptides without Tyr show the background
Sequence (P22607 whole entry, looked up): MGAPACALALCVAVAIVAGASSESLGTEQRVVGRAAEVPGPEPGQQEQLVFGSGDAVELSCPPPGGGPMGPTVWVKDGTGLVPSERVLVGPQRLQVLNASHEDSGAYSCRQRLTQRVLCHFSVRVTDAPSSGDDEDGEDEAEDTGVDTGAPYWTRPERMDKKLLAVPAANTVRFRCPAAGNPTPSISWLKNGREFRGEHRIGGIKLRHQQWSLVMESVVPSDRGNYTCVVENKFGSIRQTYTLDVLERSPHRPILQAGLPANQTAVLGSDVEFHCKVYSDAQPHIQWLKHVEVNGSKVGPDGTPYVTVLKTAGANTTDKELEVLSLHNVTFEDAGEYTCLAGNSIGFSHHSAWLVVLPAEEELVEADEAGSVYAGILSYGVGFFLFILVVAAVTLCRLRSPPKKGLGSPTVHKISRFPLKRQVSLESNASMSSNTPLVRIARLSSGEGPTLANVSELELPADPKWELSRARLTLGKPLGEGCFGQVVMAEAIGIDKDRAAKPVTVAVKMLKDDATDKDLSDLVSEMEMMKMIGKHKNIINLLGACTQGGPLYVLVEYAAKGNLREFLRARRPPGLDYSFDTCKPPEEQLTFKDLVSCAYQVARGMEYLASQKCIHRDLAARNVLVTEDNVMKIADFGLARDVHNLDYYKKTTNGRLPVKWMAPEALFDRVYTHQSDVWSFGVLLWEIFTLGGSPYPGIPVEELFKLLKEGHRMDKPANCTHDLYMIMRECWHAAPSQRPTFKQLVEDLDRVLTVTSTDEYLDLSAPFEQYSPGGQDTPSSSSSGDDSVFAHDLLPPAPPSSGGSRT
Documented phosphorylation enrichment across a set of sequences
Give only the figure.

Previously resolved entries follow.
Please indicate phosphorylation enrichment recorded for LIDSSYLTRTA [GREB1L_Y1063]
0.44

Please indicate phosphorylation enrichment recorded for REEIKYMLWLS [OTC_Y55_G50R]
1.4

Please indicate phosphorylation enrichment recorded for WAFNLYDINKD [KCNIP3_Y174]
0.763

***
Please indicate phosphorylation enrichment recorded for DEEPPYRGPFC [SASH1_Y551]
0.656

Please indicate phosphorylation enrichment recorded for AKGMKYVASKK [MET_Y1194_L1195V]
0.356

Please indicate phosphorylation enrichment recorded for HKGASYVFRLS [PTPRD_Y891]
0.818

Please indicate phosphorylation enrichment recorded for FKEIVYAVSSD [DCX_Y70_G67E]
0.809

Please indicate phosphorylation enrichment recorded for RFWPRYVKVGS [NOG_Y172]
0.751

Please indicate phosphorylation enrichment recorded for FDNSVYQKTTE [LDLR_Y828_P826S]
0.641

* * *

molecular target: Hck (UniProt P08631); assay: phosphorylation enrichment, bacterial display (enrichment ratio); higher = better substrate or ligand; peptides without Tyr show the background
Sequence (P08631 whole entry, looked up): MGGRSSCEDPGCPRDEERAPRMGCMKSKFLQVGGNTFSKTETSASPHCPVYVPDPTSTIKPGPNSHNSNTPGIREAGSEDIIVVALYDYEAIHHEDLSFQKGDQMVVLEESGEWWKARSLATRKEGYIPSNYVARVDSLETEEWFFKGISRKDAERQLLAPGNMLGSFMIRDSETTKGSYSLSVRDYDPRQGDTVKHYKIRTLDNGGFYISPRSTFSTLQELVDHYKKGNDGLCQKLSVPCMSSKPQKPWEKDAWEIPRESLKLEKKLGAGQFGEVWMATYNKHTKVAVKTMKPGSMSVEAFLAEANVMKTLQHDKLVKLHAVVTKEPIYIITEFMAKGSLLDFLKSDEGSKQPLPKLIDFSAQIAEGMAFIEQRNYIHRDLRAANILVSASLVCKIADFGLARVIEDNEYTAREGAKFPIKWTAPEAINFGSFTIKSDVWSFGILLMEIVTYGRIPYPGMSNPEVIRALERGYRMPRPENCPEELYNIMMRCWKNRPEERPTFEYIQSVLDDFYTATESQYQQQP
Documented phosphorylation enrichment across a set of sequences
Give only the figure.

Previously resolved entries follow.
For Hck (UniProt P08631), give phosphorylation enrichment of the listed sequence: PKEQRYSFLQN [GH1_Y68_K67R]
0.904

For Hck (UniProt P08631), give phosphorylation enrichment of the listed sequence: SHSMRYFSTAV [HLA-C_Y31_D33S]
0.452

For Hck (UniProt P08631), give phosphorylation enrichment of the listed sequence: VTSLKYSTPPY [BRIP1_Y916_S919P]
0.396

For Hck (UniProt P08631), give phosphorylation enrichment of the listed sequence: AMIADYMFWLG [SPATA16_Y290]
1.49

***
For Hck (UniProt P08631), give phosphorylation enrichment of the listed sequence: QKINNYLTVPA [SLC9A1_Y683]
0.689

For Hck (UniProt P08631), give phosphorylation enrichment of the listed sequence: LVGTPYWMAPE [PAK5_Y608]
0.459

For Hck (UniProt P08631), give phosphorylation enrichment of the listed sequence: SHLSAYPALEG [CD5_Y465]
0.372

For Hck (UniProt P08631), give phosphorylation enrichment of the listed sequence: PQGVRYTFTID [DCX_Y103_I104T_YF]
0.642

For Hck (UniProt P08631), give phosphorylation enrichment of the listed sequence: NQNIGYKLGHR [KCNN3_Y268]
0.396

For Hck (UniProt P08631), give phosphorylation enrichment of the listed sequence: YEDALYTVLHR [UNC13D_Y61]
9.13

For Hck (UniProt P08631), give phosphorylation enrichment of the listed sequence: QSKGIYYVQLE [MGAT4B_Y262]
2.22

For Hck (UniProt P08631), give phosphorylation enrichment of the listed sequence: ANVIRYFPTQA [SLC25A4_Y81]
0.558
